tgt: CYP3A4 (Homo sapiens)
Sequence (P08684 whole entry): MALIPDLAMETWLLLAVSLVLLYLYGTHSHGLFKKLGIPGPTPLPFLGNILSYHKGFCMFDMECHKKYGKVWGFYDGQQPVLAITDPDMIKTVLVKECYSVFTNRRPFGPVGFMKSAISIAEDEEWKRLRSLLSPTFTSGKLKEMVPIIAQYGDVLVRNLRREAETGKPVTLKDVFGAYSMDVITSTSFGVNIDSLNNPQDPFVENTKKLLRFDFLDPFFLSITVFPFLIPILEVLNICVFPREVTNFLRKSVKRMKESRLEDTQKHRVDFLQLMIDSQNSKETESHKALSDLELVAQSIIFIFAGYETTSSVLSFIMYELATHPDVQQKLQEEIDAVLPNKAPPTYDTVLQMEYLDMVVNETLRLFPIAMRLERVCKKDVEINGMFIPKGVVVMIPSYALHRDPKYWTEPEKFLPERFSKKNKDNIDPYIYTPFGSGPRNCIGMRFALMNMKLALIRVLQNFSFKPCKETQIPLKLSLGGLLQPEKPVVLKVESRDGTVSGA
method: Inhibition of CYP3A4 (unknown origin) using midazolam as substrate at 10 uM by cocktail based assay relative to control
Type: ADME
testConditions: probe midazolam
Below, each entry is listed with its recorded inhibition at 10 µM.

Sample records with inhibition at 10 µM:
c1cc(-c2ccc3nc(N4CCOCC4)ncc3c2)nc(Nc2cnn(C3CCNCC3)c2)n1 : < 10%
CC(C)NC(=O)c1ccc(Nc2nccc(-c3ccc4nc(N5CCOCC5)ncc4c3)n2)cc1 : < 10%

## Task Entry OCCN1CCC(c2ccc(Nc3nccc(-c4ccc5nc(N6C[C@@H]7C[C@H]6CO7)ncc5c4)n3)cn2)CC1 has what inhibition at 10 µM?
## Result < 10%

## Task Any idea what its inhibition at 10 µM is? The molecule is CC(C)NC(=O)c1ccc(Nc2nccc(-c3ccc4nc(N5CCCC5)ncc4c3)n2)cc1
## Result 16%

## Task State the recorded inhibition at 10 µM for this entry: CC(C)NC(=O)c1ccc(Nc2nccc(-c3ccc4nc(N5CCCC5)ncc4c3)n2)cn1
## Result 25%

## Task Dear colleague, I am looking for the recorded inhibition at 10 µM of the following molecule: OCCN1CCC(n2cc(Nc3ncc(F)c(-c4ccc5nc(N6CCOCC6)ncc5c4)n3)cn2)CC1
## Result < 10%

## Task If you can, please state the reported inhibition at 10 µM value of c1cc(-c2ccc3nc(N4CCCC4)ncc3c2)nc(Nc2cnn(C3CCNCC3)c2)n1 .
## Result < 10%

## Task Entry under review: CC(C)NC(=O)c1ccc(Nc2ncc(F)c(-c3ccc4nc(N5CCCC5)ncc4c3)n2)cc1 . Reported inhibition at 10 µM?
## Result < 10%

###

tgt: CYP2C9 (Homo sapiens)
Sequence (P11712 whole entry): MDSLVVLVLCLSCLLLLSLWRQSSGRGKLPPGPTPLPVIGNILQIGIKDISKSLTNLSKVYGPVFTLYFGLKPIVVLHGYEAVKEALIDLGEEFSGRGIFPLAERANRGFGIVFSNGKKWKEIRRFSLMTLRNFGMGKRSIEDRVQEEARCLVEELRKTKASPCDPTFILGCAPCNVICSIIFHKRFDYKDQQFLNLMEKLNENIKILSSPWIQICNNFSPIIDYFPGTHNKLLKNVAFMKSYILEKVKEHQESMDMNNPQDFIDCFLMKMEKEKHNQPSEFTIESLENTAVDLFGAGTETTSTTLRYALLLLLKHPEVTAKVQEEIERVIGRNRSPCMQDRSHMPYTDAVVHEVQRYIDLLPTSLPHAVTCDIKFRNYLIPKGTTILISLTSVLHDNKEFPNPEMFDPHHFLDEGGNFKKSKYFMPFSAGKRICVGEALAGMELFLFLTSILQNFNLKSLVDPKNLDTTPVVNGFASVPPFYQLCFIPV
method: Inhibition of CYP2C9 (unknown origin) using tolbutamide as substrate at 10 uM by cocktail based assay relative to control
Assay type: ADME
testConditions: probe tolbutamide
valueKind: inhibition at 10 µM

OCCN1CCC(n2cc(Nc3ncc(F)c(-c4ccc5nc(N6CCOCC6)ncc5c4)n3)cn2)CC1 : < 10%
OCCN1CCC(c2ccc(Nc3nccc(-c4ccc5nc(N6C[C@@H]7C[C@H]6CO7)ncc5c4)n3)cn2)CC1 : < 10%
c1cc(-c2ccc3nc(N4CCOCC4)ncc3c2)nc(Nc2cnn(C3CCNCC3)c2)n1 : < 10%
CC(C)NC(=O)c1ccc(Nc2ncc(F)c(-c3ccc4nc(N5CCCC5)ncc4c3)n2)cc1 : < 10%
CC(C)NC(=O)c1ccc(Nc2nccc(-c3ccc4nc(N5CCOCC5)ncc4c3)n2)cc1 : < 10%

Below: the item to evaluate.
## Task Tell me the measured inhibition at 10 µM of c1cc(-c2ccc3nc(N4CCCC4)ncc3c2)nc(Nc2cnn(C3CCNCC3)c2)n1 , please.
## Result < 10%
